Listing: growth of selected molecules
System: NCI-H23 lung
testDescription: NCI-60 one-dose screen, 48 h (100 = growth as untreated, 0 = no growth, -100 = all killed)
conditionDescription: 10 µM unless noted
About 83,000 compounds went through this panel and 20% of them were active in at least one assay; those are over-represented in the sample as a whole.
readout: growth (%)

>>> recordedvalue("CCOc1ccc(-c2cc(-c3cc(C(C)C)c(O)cc3C)nn2-c2ccc(S(N)(=O)=O)cc2)cc1")
27.6
>>> recordedvalue("CN(C)c1nc(NCCNS(=O)(=O)c2ccc(C3=Nc4c(N)nc(N)nc4NC(c4ccc(C(F)(F)F)cc4)C3)cc2)nc(N2CCOCC2)n1 (centres undefined)")
74
>>> recordedvalue("COc1cc2cc(C(=O)N3C[C@@H](CCl)c4c3cc(OC(=O)N(CCC(=O)N3CCN(C)CC3)C3CCCCC3)c3ccccc43)[nH]c2c(OC)c1OC")
-86.8
>>> recordedvalue("CCOc1ccccc1[C@H]1C(C(=O)c2ccc(Cl)cc2)C2(N[C@@H]1c1ccccc1)C(=O)Nc1ccc(Br)cc12 (some centres undefined)")
-39.1
>>> recordedvalue("CN(C)CCOc1ccc(C(=O)C2[C@H](c3ccc(Cl)cc3)[C@@H](c3ccccc3)NC23C(=O)Nc2ccc(Cl)cc23)cc1 (some centres undefined)")
-93.2
>>> recordedvalue("CCc1ccc(SC2c3cc(OC)ccc3Oc3nc(N)c(C#N)c(N)c32)cc1 (centres undefined)")
-5.83
>>> recordedvalue("Cc1ccc(-c2cc(C(=O)N=Nc3c(O)[nH]c4ccc(F)cc34)c3ccccc3n2)cc1")
15.1
>>> recordedvalue("Cc1ccc(N=Nc2c(N)nn3c(-c4cc5ccccc5oc4=O)ccnc23)cc1")
28
>>> recordedvalue("COc1ccc(N=Nc2c(N)nn3c(-c4ccc(F)cc4)ccnc23)cc1")
43.7
>>> recordedvalue("Cn1cc(-c2cc(N)n3nc(-c4c[nH]c5ccc(F)cc45)cc3n2)c2cc(Br)cnc21")
94.3
>>> recordedvalue("Cc1ccc(O)cc1Nc1nc(SCCN2CCOCC2)nc2c1cnn2CC(Cl)c1ccc(Br)cc1 (centres undefined)")
13.7
>>> recordedvalue("Cc1ccc2nc(NC(=O)Nc3cccc(Cl)c3)sc2c1")
93.8
>>> recordedvalue("CC(C)(C)c1cc(-c2cc(-c3ccccc3)[nH]c(=O)c2C#N)cc(C(C)(C)C)c1")
40.4
>>> recordedvalue("Cc1cccc(C)c1Nc1nnc(-c2c[nH]c3ccccc23)o1")
88.8
>>> recordedvalue("Cc1nn(-c2ccccc2)c2nc(C)n(C(=O)N/N=C/c3cccc([N+](=O)[O-])c3)c(=O)c12")
77.7
>>> recordedvalue("Nc1cc2ccccc2c(=O)n1NC(=O)c1ccc(Br)cc1")
81.8
>>> recordedvalue("O=C(Nc1nc2ccccc2s1)Nc1ccccc1Cl")
70.5
>>> recordedvalue("COc1ccc2[nH]cc(-c3cc4nc(-c5cn(C)c6ncc(Br)cc56)cc(N)n4n3)c2c1")
-76.7
>>> recordedvalue("O=C(Nc1ccc(S(=O)(=O)N2CCCCC2)cc1)C(Cl)Cl")
103

====

Tested on: SK-MEL-28 melanoma
testDescription: NCI-60 one-dose screen, 48 h (100 = growth as untreated, 0 = no growth, -100 = all killed)
conditionDescription: 10 µM unless noted
This is part of a sample that, as a whole, favours compounds with a hit. Of some 83,000 tested, about 20% had one in any assay.
For each record, check the reported growth: if it is below 60% write TRUE, else write FALSE.

>>> discretelabel("O=c1[nH]c2ccccc2cc1CSc1ccccc1Nc1nccc(-c2ccc3c(c2)OCO3)n1")
"FALSE"
>>> discretelabel("COC(=O)c1c(C(=O)OC)c2ccc3c4ccccc4ccc3n2c1C(=O)OC")
"FALSE"
>>> discretelabel("O=C1CCC(N2C(=O)c3cccc(NCCOCCOCCOCCC(=O)NCCCC(=O)NC(c4ccc5c(c4)OCO5)c4cc(Cl)c5cccnc5c4O)c3C2=O)C(=O)C1 (stereo not drawn)")
"TRUE"
>>> discretelabel("NS(=O)(=O)c1ccc(Nc2nc(SCC(=O)c3ccc(F)cc3)nc3ccccc23)cc1")
"TRUE"
>>> discretelabel("CC[C@]12C=CCN3CC[C@@]4(c5ccc(OC)cc5N(C)[C@H]4[C@@](O)(C(=O)OC)[C@@H]1OC(=O)CCC[P+](c1ccc(OC)cc1)(c1ccc(OC)cc1)c1ccc(OC)cc1)[C@@H]32")
"TRUE"
>>> discretelabel("COc1ccc2[nH]cc(-c3cc(N)n4nc(-c5c[nH]c6ccccc56)cc4n3)c2c1")
"TRUE"
>>> discretelabel("Cc1nc(Nc2ccccn2)sc1C1=NNC(c2ccccc2F)C1 (stereo not drawn)")
"FALSE"
>>> discretelabel("COc1cccc(-c2ccc(/C=N/NC(=O)c3[nH]c4ccc(Br)cc4c3-c3ccccc3)s2)c1")
"TRUE"
>>> discretelabel("COc1ccc(C2=NN(C(=O)[C@H]3[C@@H](c4ccco4)c4sc(=O)[nH]c4S[C@@H]3C)C(c3ccc4ccccc4c3)C2)cc1 (stereo partly drawn)")
"TRUE"
>>> discretelabel("CN(C)c1nc(NCCNS(=O)(=O)c2ccc(C3=Nc4c(N)nc(N)nc4NC(c4ccc(Cl)cc4)C3)cc2)nc(N2CCOCC2)n1 (stereo not drawn)")
"FALSE"
>>> discretelabel("N#C/C(=C/c1ccc([N+](=O)[O-])cc1)c1nnc(NC(=O)c2ccc(-n3c(=O)[nH]c4ccccc4c3=O)cc2)s1")
"FALSE"
>>> discretelabel("CC(=O)Nc1ccc(S(=O)(=O)Nc2ccc(-c3ccc4c(c3)NC(=O)/C4=C\\c3ccc[nH]3)cc2)cc1")
"FALSE"
>>> discretelabel("COc1ccc(N=Nc2c(N)nn3c(-c4ccc(OC)c(OC)c4)ccnc23)cc1")
"FALSE"
>>> discretelabel("COc1sc(/C=N/NC(=O)c2[nH]c3ccc(Br)cc3c2-c2ccccc2)cc1Br")
"TRUE"
>>> discretelabel("O=C(NC(=S)N1CCN(c2ncnc3c2cnn3-c2ccccc2)CC1)c1ccc(F)cc1")
"FALSE"
>>> discretelabel("C#CCCCNCCNc1ccnc2cc(Cl)ccc12")
"FALSE"
>>> discretelabel("O=C1CC(c2ccc(I)cc2)OC2C=Cc3ccccc3C12 (stereo not drawn)")
"FALSE"
